Each recorded value in this set is attributed to paper PMC7618200.

tested-system: T1, SPOP MATH domain (SPOP^MATH; residues 28-166) (human, UniProt O43791 28-166)
T1 construct: the methods print 28-116; Cleaved with HRV 3C protease; also called speckle-type BTB/POZ protein MATH domain; source: E. coli BL21 (DE3), purified (Ni-NTA, tag cleavage, reverse Ni-NTA, SEC); not shown: His6, N-terminal, cleaved; MBP, N-terminal, cleaved
T1 sequence (O43791 28-166): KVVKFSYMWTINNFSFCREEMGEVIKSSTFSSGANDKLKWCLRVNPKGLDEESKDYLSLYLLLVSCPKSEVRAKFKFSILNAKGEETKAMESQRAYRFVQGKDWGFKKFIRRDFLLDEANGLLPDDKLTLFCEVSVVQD
measurement-notes: fluorescence polarisation; two-fold dilution series of SPOP^MATH mixed with a constant 6-50 nM 5Flu-labeled peptide; 50 mM HEPES pH 7.5, 100 mM NaCl, 1 mM TCEP, 0.005% Tween-20; 25°C; one-site total binding fit; mean of three independent experiments
protocol-conditions: both partners purified
Ends that are not written are not given here. 5Flu = 5-carboxyfluorescein label
measure: pKd
Schema: pKd number; meaning minus log10 of the concentration expressed in molar units.

Q. Return reported pKd; argument: SRENLACDEVTSTTSK(5Flu) (added C-terminal lysine that carries the label; also called ^5Flu-Puc peptide; fluorescently labeled Puc peptide; source: synthetic peptide (Peptide Synthetics, Peptide Protein Research Limited)) [Puc-5Flu peptide (SRENLACDEVTSTTSK-5Flu)]
A. 5.96
